# measured-on: T1, human plasma kallikrein (PKal) (human, UniProt P03952 20-638)
# T1 construct: Active PKal is cleaved at the marked R/I site into two disulfide-linked chains; also called human Pkal; active PKal
# test-description: Ki,app; Fab inhibition of PKal cleavage of a substrate peptide, Morrison fit
# Description: Briefly, PKal and a Fab at various concentrations are incubated together for 1 hour at 30° C. A substrate peptide (cleavable by PKal) is then added to this PKal-Fab mixture. The rate of substrate peptide cleavage/proteolysis is then measured, and plotted against the concentrations of the Fab. This plot is then fit to the Morrison equation, which calculates the K_{i,app} value. The results thus obtained are shown in FIGS. 5A-5D and Table 3 below: […]
property-label: Ki (nM)
State just the number; it will be interpreted in nM.

Quick one: Ki of M0202-D09 (Fab, V domains shown) VH: EVQLLESGGGLVQPGGSLRLSCAASGFTFSHYIMMWVRQAPGKGLEWVSGIYSSGGITVYADSVKGRFTISRDNSKNTLYLQMNSLRAEDTAVYYCAYRRIGVPRRDSFDIWGQGTMVTVSS VL: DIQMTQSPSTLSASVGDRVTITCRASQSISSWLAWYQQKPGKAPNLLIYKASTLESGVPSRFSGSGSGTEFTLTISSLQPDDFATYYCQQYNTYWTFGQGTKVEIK ?
0.2

How about this binder: M0199-A08 (Fab, V domains shown, also called M199-A08) VH: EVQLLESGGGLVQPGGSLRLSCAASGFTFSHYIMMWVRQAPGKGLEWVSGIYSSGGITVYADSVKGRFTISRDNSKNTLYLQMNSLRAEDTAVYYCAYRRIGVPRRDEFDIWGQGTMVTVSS VL: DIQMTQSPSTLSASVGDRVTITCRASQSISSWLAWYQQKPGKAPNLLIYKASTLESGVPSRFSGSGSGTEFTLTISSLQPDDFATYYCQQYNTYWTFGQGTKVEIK
0.06

How about this binder: M0200-E11 (Fab, V domains shown, HC CDR3 variant of M0162-A04, tested as Fab) VH: EVQLLESGGGLVQPGGSLRLSCAASGFTFSHYIMMWVRQAPGKGLEWVSGIYSSGGITVYADSVKGRFTISRDNSKNTLYLQMNSLRAEDTAVYYCAYRRTGVPRRDAFDNWGQGTMVTVSS VL: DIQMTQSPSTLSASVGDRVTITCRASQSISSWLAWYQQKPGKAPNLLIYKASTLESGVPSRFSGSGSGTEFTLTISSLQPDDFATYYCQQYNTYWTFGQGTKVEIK
0.4

Then this binder:
Quick one: Ki of X133-D06 (Fab, V domains shown, HC CDR3 variant of M0162-A04, tested as Fab) VH: EVQLLESGGGLVQPGGSLRLSCAASGFTFSHYIMMWVRQAPGKGLEWVSGIYSSGGITVYADSVKGRFTISRDNSKNTLYLQMNSLRAEDTAVYYCAYRRIGIPRRDEFDIWGQGTMVTVSS VL: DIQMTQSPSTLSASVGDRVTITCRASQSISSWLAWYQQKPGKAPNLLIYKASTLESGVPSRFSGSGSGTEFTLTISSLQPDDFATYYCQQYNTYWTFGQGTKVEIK ?
0.33
